assay: SPF calculated by modified Sayre method; type: physicochemical; details: UV filter 1.0% in sun protective cosmetic
Response field label takes label 1 when SPF values calculated by Modified Sayre is strictly below 4 and label 0 in all other cases.

Please review the following examples before continuing.
{"columns": ["COMPOUND", "QUALITATIVE_LABEL"],
 "data": [
  ["CCCCC(CC)COC(=O)c1ccc(Nc2nc(Nc3ccc(C(=O)NC(C)(C)C)cc3)nc(Nc3ccc(C(=O)OCC(CC)CCCC)cc3)n2)cc1 (centres unmarked)", "label 0"],
  ["CCCCCCCCCCCCc1cc(C)cc(-n2nc3ccccc3n2)c1O", "label 1"],
  ["CCCCC(CC)COc1ccc(-c2nc(-c3ccc(OC)cc3)nc(-c3ccc(OCC(CC)CCCC)cc3O)n2)c(O)c1 (centres unmarked)", "label 0"]
]}

Consider now this further compound.
Does the reported SPF values calculated by Modified Sayre of the following compound sit strictly below 4? CCCCC(CC)COC(=O)C(C#N)=C(c1ccccc1)c1ccccc1 (centres unmarked) label 1

* * *

Recorded Critical wavelength (λC) by entry
experiment: Critical wavelength (λC) from absorption spectra (Eq. 2); type: physicochemical; conditions: chemical UV filter 10% in sun protective solution
Give the quantity in nm, number only.

The following compounds have reported results that may help.
{"columns": ["COMPOUND", "Critical wavelength (λC) [nm]"],
 "data": [
  ["CCCCC(CC)COC(=O)C(C#N)=C(c1ccccc1)c1ccccc1 (centres unmarked)", 342],
  ["CCCCC(CC)COC(=O)c1ccc(Nc2nc(Nc3ccc(C(=O)OCC(CC)CCCC)cc3)nc(Nc3ccc(C(=O)OCC(CC)CCCC)cc3)n2)cc1 (centres unmarked)", 341],
  ["CCCCC(CC)COc1ccc(-c2nc(-c3ccc(OC)cc3)nc(-c3ccc(OCC(CC)CCCC)cc3O)n2)c(O)c1 (centres unmarked)", 365]
]}

Lab book: Critical wavelength (λC) of CCCCC(CC)COC(=O)c1ccc(Nc2nc(Nc3ccc(C(=O)NC(C)(C)C)cc3)nc(Nc3ccc(C(=O)OCC(CC)CCCC)cc3)n2)cc1 (centres unmarked) noted as 337

Lab book: Critical wavelength (λC) of CCCCCCCCCCCCc1cc(C)cc(-n2nc3ccccc3n2)c1O noted as 363

* * *

test: Critical wavelength (λC) from absorption spectra (Eq. 2); format: physicochemical; details: chemical UV filter 1% in sun protective solution
Recorded Critical wavelength (λC) by entry
Give the quantity in nm, number only.

The following molecules have reported results that may help.
{"columns": ["MOLECULE", "Critical wavelength (λC), nm"],
 "data": [
  ["CCCCCCCCCCCCc1cc(C)cc(-n2nc3ccccc3n2)c1O", 363],
  ["CCCCC(CC)COC(=O)c1ccc(Nc2nc(Nc3ccc(C(=O)OCC(CC)CCCC)cc3)nc(Nc3ccc(C(=O)OCC(CC)CCCC)cc3)n2)cc1 (centres unmarked)", 341],
  ["CCCCC(CC)COC(=O)c1ccc(Nc2nc(Nc3ccc(C(=O)NC(C)(C)C)cc3)nc(Nc3ccc(C(=O)OCC(CC)CCCC)cc3)n2)cc1 (centres unmarked)", 337],
  ["CCCCC(CC)COc1ccc(-c2nc(-c3ccc(OC)cc3)nc(-c3ccc(OCC(CC)CCCC)cc3O)n2)c(O)c1 (centres unmarked)", 365]
]}

With those in mind, consider the next molecule.
Lab book: Critical wavelength (λC) of CCCCC(CC)COC(=O)C(C#N)=C(c1ccccc1)c1ccccc1 (centres unmarked) noted as 342
